The measurements presented in this section are drawn from PubChem BioAssay (NCATS).

experiment: Cell Viability - LYMP2-018 (AID 985); details: LYMP2-018 lymphoblastoid cells, viability (qHTS); series mostly up to 92.2 µM;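 also: compound exposure lasted 24 hr at 37 °C; plate controls were DMSO only for no effect and tetraoctylammonium bromide at 92 µM for full effect; nearly all actives have a fitted effect of over 50% in size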
Inconclusive results are not listed. Active and inactive are the calls of the source. Calls follow the shape of the dose curve; as a rule, active = well fitted cell-killing curve with a large enough effect; inconclusive = small, poorly fitted or top-dose-only effect; inactive = flat fitted curve, though single readings scatter.
Select the correct class. Options are 1 (active), -1 (inactive) and nothing else.

Query block: Dear colleague, could you share the recorded outcome for NCC(O)c1ccc(O)cc1 (centres undefined) when you have a moment?
Result block: -1

====

tested on: W2; experiment: qHTS profiling for inhibitors of Plasmodium falciparum proliferation (AID 504749); also: nearly all actives have a fitted effect of over 60% in size; conditions: P. falciparum in erythrocytes, SYBR Green DNA, 72 h; series mostly up to 28.7 µM
Inconclusive results are not listed. Calls of active or inactive are those of the source. Calls come from the whole dose curve; as a rule, active = well fitted inhibition curve with a large enough effect; inconclusive = small, poorly fitted or top-dose-only effect; inactive = flat fitted curve, though single readings scatter.
Select the correct class. Options are 1 = active, 0 = inactive and nothing else.

Here are 5 compounds together with their reported answers.
| compound | label |
| --- | --- |
| Cc1ncc(CNC(=O)N(CCCl)N=O)c(N)n1 | 0 |
| CCN(C(C)=O)c1cccc(-c2ccnc3c(C#N)cnn23)c1 | 0 |
| OCCOc1ccccc1 | 0 |
| NN=C(N)N | 0 |
| COc1ccccc1N1CCNCC1 | 0 |

Query block: Dear colleague, could you share the recorded outcome for CCCC1CCCCN1 (configuration not stated) when you have a moment?
Result block: 0

Query block: Please do the same for "NCC1(CC(=O)O)CCCCC1" as well.
Result block: 0

Query block: Please do the same for "CC(=O)[C@H]1CC[C@H]2[C@@H]3CC[C@H]4C[C@H](O)CC[C@]4(C)[C@H]3C(=O)C[C@]12C" as well.
Result block: 0

Query block: Please do the same for "CN1C(=S)CN=C(c2ccccc2)c2cc(Cl)ccc21" as well.
Result block: 0

Query block: Please do the same for "FC(F)(F)c1cccc(C2=CCN(CCc3ccc4ccccc4c3)CC2)c1" as well.
Result block: 0

Query block: Please do the same for "Oc1cccc2cccnc12" as well.
Result block: 0

Query block: Please do the same for "Oc1ccc(Cl)cc1Cc1ccccc1" as well.
Result block: 1
